Numbers sourced from patent US20190359687A1.

- study target: T1, human glycophorin A on human red blood cells or red blood cell membranes (human, UniProt P02724 20-150)
- T1 construct: whole, on cells; also called hRBC; human RBC membranes
- T1 sequence (looked up): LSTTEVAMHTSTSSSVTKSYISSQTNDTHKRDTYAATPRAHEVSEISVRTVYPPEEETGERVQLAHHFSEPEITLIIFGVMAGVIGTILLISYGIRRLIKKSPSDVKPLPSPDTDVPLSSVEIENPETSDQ
- experiment summary: scFv on intact human RBC, unbound scFv by ELISA; 20 min after 200-fold dilution
reported property: percentage of input scFv antibody bound (%)
Return type: number; implicit unit %.

Reference set (2 entries):
TPP-7782 scFv with C-terminal 6xHIS tag (scFv) scFv: DIQLTQSPSFLSASVGDRVTITCRASSSVRYIYWFQQKPGKAPKLLIYATSFRQSGVPSRFSGSGSGTEYTLTISSLQPEDFATYYCHQRNSFPYTFGQGTKLEIKGGGGSGGGGSGGGGSGGGGSEVQLVQSGAEVKKPGASVKVSCKASGYTFTTYTIHWVRQAPGQGLEWMGYINPSSGYTRYNPKFKGRVTMTRDKSTSTAYMELRSLRSDDTAVYYCQTGTRDYWGQGTTVTVSSHHHHHH	87
TPP-7792 scFv with C-terminal 6xHIS tag (scFv) scFv: DIQLTQSPSFLSASVGDRVTITCRASSSVRYIYWFQQKPGKAPKLLIYATSFRQSGVPSRFSGSGSGTEYTLTISSLQPEDFATYYCHQRNSFPYTFGQGTKLEIKGGGGSGGGGSGGGGSGGGGSEVQLVQSGAEVKKPGASVKVSCKASGYTFTTYAIHWVRQAPGQGLEWMGYINPSSGYTRYNPKFKGRVTMTRDKSTSTAYMELRSLRSDDTAVYYCWTGTRDYWGQGTTVTVSSHHHHHH	98

API: the following record is the query input.
(Q) Give the measured percentage of input scFv antibody bound of TPP-7794 scFv with C-terminal 6xHIS tag (scFv) scFv: DIQLTQSPSFLSASVGDRVTITCRASSSVRYIYWFQQKPGKAPKLLIYATSFRQSGVPSRFSGSGSGTEYTLTISSLQPEDFATYYCHQRNSFPYTFGQGTKLEIKGGGGSGGGGSGGGGSGGGGSEVQLVQSGAEVKKPGASVKVSCKASGYTFTTYAIHWVRQAPGQGLEWMGYINPSSGYTRYNPKFKHRVTMTRDKSTSTAYMELRSLRSDDTAVYYCWTGTRDYWGQGTTVTVSSHHHHHH .
(A) 85
